- assay system: B*4001 (Homo sapiens, UniProt P01889, A65T/A93T/A95T/D138N/D98Y/E176V/E69K/N87E/Q56L/Q94N/R180L/S121R/S35A/S48T/T167S/V36M/W171L/Y33H/Y91S)
- test summary: biochemical
- Type: binding
Where no end group is shown, it is not given here.
Classify: YES when Kd is strictly less than 60 nM; NO when Kd is not.

// below: answered sequences
{"columns": ["item sequence", "group"],
 "data": [
  ["IEEFGTGVF [YFV B44 15989]", "YES"],
  ["SEQGEFKLL [YFV B44 15990]", "NO"]
]}

Item VEGEGLHKL [Peptide 14674] : Kd beneath 60 nM, strictly?
NO

Item EEEQTLTIL [Peptide 14671] : Kd beneath 60 nM, strictly?
YES

Item QEKWMTGRM [YFV B44 16000] : Kd beneath 60 nM, strictly?
NO

Item AEVRLATML [YFV B44 15996] : Kd beneath 60 nM, strictly?
YES

Item KEVSGVKGF [YFV B44 15986] : Kd beneath 60 nM, strictly?
NO
